# target under test: CRF1R
# experiment description: cell-based or functional assay
Ends that are not written are not given here.
result type: CRF1R EC50 (nM)

>>> quantitative_readout("DNPSLSIDLPLQLLRTLLELEKTQSQRERAEQNAIIFASV-NH2 [SEQ ID NO 342]")
1000
>>> quantitative_readout("ZGPPISIDLPIYLLRKMIEIEKQEKEKQQAANNALLLDTI (C-terminal amide) [SEQ ID NO 236]")
1000
>>> quantitative_readout("ZGPPISIDVPYQLLRKVIEIEKQEKEKQQAANNARLLDTI (C-terminal amide) [SEQ ID NO 374]")
1000
